# tested on: Caspase-3 (Homo sapiens, UniProt P42574)
# Sequence (P42574 29-175 limits assumed): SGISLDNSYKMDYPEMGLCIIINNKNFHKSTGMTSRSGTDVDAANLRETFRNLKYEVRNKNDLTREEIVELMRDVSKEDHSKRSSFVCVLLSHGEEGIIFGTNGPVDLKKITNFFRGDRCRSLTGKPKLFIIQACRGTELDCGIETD
# Sequence (P42574 176-277 limits assumed): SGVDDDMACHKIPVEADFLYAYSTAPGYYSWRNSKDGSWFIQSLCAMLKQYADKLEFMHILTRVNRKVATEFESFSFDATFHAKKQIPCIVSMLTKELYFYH
# run description: Inhibition of human recombinant caspase 3 assessed as fluorescent 7-amido-4-methylcoumarin release
measurement name: pIC50
Quick note: pIC50 means taking -log10 of the concentration in moles per liter.

Answered cases to consult:
                                     smiles  observed_measurement
0  C[C@H](NC(=O)OCc1ccccc1)C(=O)N[C@H](/C=C/S(C)(=O)=O)CC(=O)O                  3.18
1  C[C@H](NC(=O)OCc1ccccc1)C(=O)N[C@H](/C=C/S(=O)(=O)c1ccccc1)CC(=O)O                  3.46
2  CS(=O)(=O)/C=C/[C@H](CC(=O)O)NC(=O)OCc1ccccc1                  3.36
3  CC(C)[C@H](NC(=O)OCc1ccccc1)C(=O)N[C@H](/C=C/S(C)(=O)=O)CC(=O)O                  3.87
4  CC(C)[C@H](NC(=O)OCc1ccccc1)C(=O)N[C@H](/C=C/S(=O)(=O)c1ccccc1)CC(=O)O                  3.41

We next turn to a different molecule, shown below.
I am curious: what pIC50 value has been reported for O=C(O)C[C@@H](/C=C/S(=O)(=O)c1ccccc1)NC(=O)OCc1ccccc1 ? 3.34
